# System: human neutrophils
# METHOD: Superoxide anion (O2˙-) generation in fMLF/CB-activated human neutrophils (SOD-inhibitable ferricytochrome c reduction)
# Assay type: cell-based
# SETUP_CONDITIONS: Neutrophil; FMLP/CB-induced human neutrophils; mean ± S.E.M. (n = 3-5); read-out: Superoxide Anion IC50
// reported IC50 per item

Cn1nc(N)c2c(Nc3ccccc3S)nc3ccccc3c21 : > 10 µM
Nc1noc2c1c(Nc1ccc(Cl)cc1)nc1ccccc12 : > 10 µM
Nc1noc2c1c(Nc1ccccc1)nc1ccccc12 : > 10 µM

Prompt line: Using known records, supply IC50 for COc1ccccc1Nc1nc2ccccc2c2c1c(N)nn2C
Response line: 1.37 µM

====

// reported IC50 per item
# System: human neutrophils
# METHOD: Elastase release in fMLF/CB-activated human neutrophils (Methoxysuccinyl-Ala-Ala-Pro-Val-p-nitroanilide substrate)
# Assay type: cell-based
# SETUP_CONDITIONS: Neutrophil; FMLP/CB-induced human neutrophils; mean ± S.E.M. (n = 3-5); read-out: Elastase Release IC50

Examples from the recorded data:
Nc1noc2c1c(Nc1ccccc1)nc1ccccc12 : > 10 µM
Cn1nc(N)c2c(Nc3ccccc3S)nc3ccccc3c21 : > 10 µM

Note: attention shifts to another entry.
Prompt line: Param request: IC50 | system human neutrophils | item Cc1ccc(Nc2nc3ccccc3c3c2c(N)nn3C)cc1
Response line: > 10 µM

====

# System: human neutrophils
# METHOD: Superoxide anion (O2˙-) generation in fMLF/CB-activated human neutrophils (SOD-inhibitable ferricytochrome c reduction)
# Format: cell-based
# SETUP_CONDITIONS: Neutrophil; FMLP/CB-induced human neutrophils; mean ± S.E.M. (n = 3-5); read-out: Superoxide Anion IC50
# Procedure: Human neutrophils were obtained in lipopolysaccharide-free conditions by means of dextran sedimentation and Ficoll centrifugation. O2˙^- production was determined based on the SOD-inhibitable reduction of ferricytochrome c. […] Changes in absorbance with the reduction of ferricytochrome c at 550 nm were continuously monitored in a double-beam, six-cell positioner spectrophotometer with constant stirring (Hitachi U-3010, Tokyo, Japan). […]
pIC50: −log10 of the molar value.
// reported pIC50 per item

Examples from the recorded data:
COc1cc(Nc2nc3ccccc3c3onc(N)c23)cc(OC)c1OC : < 5.00
CC(=O)c1ccc(Nc2nc3ccccc3c3onc(N)c23)cc1 : < 5.00

Note: attention shifts to another entry.
Prompt line: Using known records, supply pIC50 for Cn1nc(N)c2c(Nc3ccccc3)nc3ccccc3c21
Response line: 5.62

Cited source: patent EP3876933B1
